assay: Toxicity assay in TZM-bl cells; format: cell-based; conditions: human
The compounds listed here are annotated with their CC50 at 48 h.

Consider the worked cases shown below.
Answer with reported CC50 at 48 h of N#Cc1ccc2c(S(=O)(=O)n3nc(Nc4ccc(C#N)c(C#N)c4)nc3N)cccc2c1
31.8 µM

Tell me CC50 at 48 h reported for N#C/C=C/c1ccc2c(S(=O)(=O)n3nc(Nc4ccc(CC#N)cc4)nc3N)cccc2c1
0.747 µM

Supply CC50 at 48 h value. Item: N#Cc1ccc(Nc2nc(N)n(S(=O)(=O)c3cccc4cc(C#N)ccc34)n2)cc1
7.55 µM

Read off the recorded CC50 at 48 h for Cc1cc(/C=C/C#N)cc(C)c1Nc1ccnc(Nc2ccc(C#N)cc2)n1 [Rilpivirine, rilpivirine, reference compound]
112 µM

# input for lookup
Recall and state the measured CC50 at 48 h for Nc1nc(Nc2ccc(Cl)cc2)nn1S(=O)(=O)c1ccc2ccccc2c1 .
> 1 µM
